- tgt: T1, full-length untagged human GPNMB expressed on cells (human, UniProt Q14956 23-572)
- T1 sequence: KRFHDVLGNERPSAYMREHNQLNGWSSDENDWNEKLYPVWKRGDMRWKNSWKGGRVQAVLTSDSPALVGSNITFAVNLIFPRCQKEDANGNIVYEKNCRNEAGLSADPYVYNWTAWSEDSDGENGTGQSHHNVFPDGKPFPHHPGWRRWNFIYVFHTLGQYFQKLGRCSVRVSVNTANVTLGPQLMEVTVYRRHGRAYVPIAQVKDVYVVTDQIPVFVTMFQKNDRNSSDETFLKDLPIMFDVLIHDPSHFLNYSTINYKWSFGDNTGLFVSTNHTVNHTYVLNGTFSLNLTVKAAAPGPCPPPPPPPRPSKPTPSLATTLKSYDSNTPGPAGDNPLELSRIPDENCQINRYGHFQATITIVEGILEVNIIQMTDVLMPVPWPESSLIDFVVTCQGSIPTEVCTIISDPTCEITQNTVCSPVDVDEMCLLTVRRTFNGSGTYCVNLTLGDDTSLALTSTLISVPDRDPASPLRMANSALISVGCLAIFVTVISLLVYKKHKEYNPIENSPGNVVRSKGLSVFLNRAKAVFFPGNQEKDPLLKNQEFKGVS
- assay: cell-based or functional assay
endpoint_label: Fold Decrease Lyso Tracker (max response at 1 µg/ml) (fold)
The figure you give is taken to be in fold; do not add the unit.

Reported Fold Decrease Lyso Tracker (max response at 1 µg/ml) of anti-GPNMB antibody GPN-85 (antibody, V domains shown) VH: QVQLQESGPGLVKPSETLSLTCTVSGISITTGNYRWSWIRQPPGKGLEWIGYIDYSGTITYNPSLKQRVTITRDTSKNQFSLELSSVTAADTAVYYCARDLTHWYFDVWGQGTLVTVSS VL: DIVMTQSPDSLAVSLGERATINCKSSRSVDYFGIGFLNWYQQKPGQPPKLLIYATSHQGSGVPDRFSGSGSGTDFTLTISSLQAEDVAVYYCQQQKEVPPTFGGGTKVEIK : 0.755

Reported Fold Decrease Lyso Tracker (max response at 1 µg/ml) of anti-GPNMB antibody GPN-89 (antibody, V domains shown) VH: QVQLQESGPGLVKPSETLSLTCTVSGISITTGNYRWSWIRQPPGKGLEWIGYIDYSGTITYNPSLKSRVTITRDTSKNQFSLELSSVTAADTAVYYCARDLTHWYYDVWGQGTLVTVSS VL: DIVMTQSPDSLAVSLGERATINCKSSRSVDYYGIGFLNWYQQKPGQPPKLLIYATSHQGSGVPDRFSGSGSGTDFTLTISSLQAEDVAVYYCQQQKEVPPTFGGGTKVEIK : 0.757

Reported Fold Decrease Lyso Tracker (max response at 1 µg/ml) of anti-GPNMB antibody GPN-90 (antibody, V domains shown) VH: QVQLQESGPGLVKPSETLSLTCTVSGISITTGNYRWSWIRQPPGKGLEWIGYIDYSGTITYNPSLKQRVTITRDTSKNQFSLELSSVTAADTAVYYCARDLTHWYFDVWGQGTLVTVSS VL: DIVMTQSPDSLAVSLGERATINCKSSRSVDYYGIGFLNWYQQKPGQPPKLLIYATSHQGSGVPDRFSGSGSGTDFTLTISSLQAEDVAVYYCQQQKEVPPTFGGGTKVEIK : 0.761
